# test_target: p38 (Homo sapiens, UniProt Q16539)
# Sequence (Q16539 whole entry): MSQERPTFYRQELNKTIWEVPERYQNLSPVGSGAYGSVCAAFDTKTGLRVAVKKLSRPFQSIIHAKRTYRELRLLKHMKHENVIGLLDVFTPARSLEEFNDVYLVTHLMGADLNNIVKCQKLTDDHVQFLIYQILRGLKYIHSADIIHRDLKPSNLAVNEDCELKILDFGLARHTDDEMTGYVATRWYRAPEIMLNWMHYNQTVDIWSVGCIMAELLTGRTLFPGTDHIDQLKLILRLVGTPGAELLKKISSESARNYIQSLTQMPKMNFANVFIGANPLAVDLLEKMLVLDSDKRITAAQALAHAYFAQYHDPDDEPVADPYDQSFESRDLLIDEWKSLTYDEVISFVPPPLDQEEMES
# protocol_summary: DSF against p38 (selectivity panel of MAPK cascade members)
# Assay type: binding
# setup_conditions: difference between the TAOK2 ΔTm and that of p38, DSF
readout_name: ΔΔTm (p38) (°C)

In the examples that follow, each entry is paired with its recorded ΔΔTm (p38).
{"molecule": "CCOCCCn1c(=S)[nH]c2cc(C(=O)NCC3COc4ccccc4O3)ccc2c1=O (centres unmarked)", "test_target": "p38 (Homo sapiens, UniProt Q16539)", "numeric_readout": 2.0}
{"molecule": "CS(=O)(=O)c1ccc2nc(NC(=O)CCCOc3ccc(Cl)cc3)sc2c1", "test_target": "p38 (Homo sapiens, UniProt Q16539)", "numeric_readout": 2.0}

P: CCC(=O)Nc1nc(C)c(-c2csc(Nc3cc(OC)ccc3OC)n2)s1
Q: Cc1ccc(NCCCC(=O)N/N=C/c2cc(Br)cc(Br)c2O)cc1
R: O=C(NCC1COc2ccccc2O1)c1ccc2c(=O)n(Cc3ccco3)c(=S)[nH]c2c1 (centres unmarked)
Order the entries by their reported ΔΔTm (p38), beginning at the minimum. Response field: labels, in requested order.
R, Q, P
(R: 0.3 °C, Q: 1.3 °C, P: 2.8 °C)
